Could you please report measured TGI for the items listed next?
# System: HCT-116 colon
# run-description: NCI tumour cell line growth inhibition, 48 h

compound	measured
Cn1ccnc1C(=O)/C=C/c1ccc(C(=O)Nc2ccccc2O)cc1	2.64 µM
CNc1cccnc1/C=N/NC(N)=S	> 8.26 µM
C=CCC12CC(=O)C=C1CCC1(C2)OCCO1 (configuration not stated)	> 100 µM
N#Cc1c(-c2ccc(Cl)cc2)c(-c2ccc(Cl)cc2)nn(CCOC(=O)CCC(=O)O)c1=O	4.01 µM
COc1cc(CNC(=O)[C@H](Cc2ccc(O)cn2)NC(C)=O)cc(OC)c1	> 100 µM
O=C1CSC(=S)N1Cc1cccnc1	11 µM
CC1(C)O[C@H]2[C@@H]3N=C(c4ccccc4)O[C@@H]3C=C[C@H]2O1	> 100 µM
COc1cc(-c2c3c([nH]c(=O)c2C#N)-c2cc([N+](=O)[O-])ccc2CCC3)cc(OC)c1OC	37.7 µM

# map each compound to its TGI
1. Fc1ccc(NCn2nc(COc3ccccc3Cl)n(/N=C/c3ccc(-c4ccc(Cl)cc4Cl)o3)c2=S)cc1Cl
2. Cn1c(=O)c2[nH]c(C3CC(=O)CC(c4nc5c([nH]4)c(=O)n(C)c(=O)n5C)N3)nc2n(C)c1=O (configuration not stated)
3. Cc1nc(N)sc1N=Nc1cc(Cl)c([N+](=O)[O-])cc1Cl
4. O=c1[nH]c(=O)n(C2OC(CO)C(O)C2O)cc1OCCc1ccccc1 (configuration not stated)
5. Cc1nc(N)c(N2CCN(Cc3ccccc3)CC2)c(=O)[nH]1
6. O=C(O)CSc1nnc(CCCCCCCCc2nnc(SCC(=O)O)o2)o1
7. CC(C)=CC(O)C/C(C)=C/CC/C(C)=C/CCC1(C)C(CCCO)/C(=C(/C)C=O)CCC1(C)O (configuration not stated)
8. Cc1ccc(NC(=O)C(=O)C2NC(=S)NC2=O)c([N+](=O)[O-])c1 (configuration not stated)

Marked response:
1: > 100 µM; 2: > 100 µM; 3: > 100 µM; 4: > 100 µM; 5: > 100 µM; 6: > 100 µM; 7: > 100 µM; 8: > 100 µM
